test system: NCI-H226; experiment: NCI tumour cell line growth inhibition, 48 h
Calls of active or inactive are those of the source. No stated cut-off is given here; in the data, active = GI50 up to about 1.1 µM and inactive = higher. Residues, ends and D or L forms follow the SMILES beside them.
quantity: GI50

In the examples that follow, each entry is paired with its recorded GI50.
| molecule | GI50 |
| --- | --- |
| FC(F)(F)c1cccc(-c2nc3nc(Cl)c(Cl)nc3[nH]2)c1 | 1.67 µM (inactive) |
| CCOC(=O)c1sc2c(c1OC(=O)c1cccs1)c(=O)n(-c1ccccc1)c(=S)n2-c1ccccc1 | 20.5 µM (inactive) |
| CN(C)CCCN1CCC2(CCC(C(C)(C)C)CC2)CC1 | 6.82 µM (inactive) |
| CCC(C)C(NC(=O)C1CCCN1)C(=O)NC(C(=O)NCC(=O)NC(CC(N)=O)C(=O)NC(CC(C)C)C(=O)NC(CC(C)C)C(=O)NC(CCCCN)C(N)=O)C(C)C (centres undefined) (H-PIVGNLLK-NH2; configuration not given here) | > 75 µM (inactive) |
| O=c1cc(-c2ccccc2)c2ccc(O)c(CN(CCCl)CCCl)c2o1 | 17.9 µM (inactive) |
| CC1=NN(c2nc(N)nc(-c3cc4ccccc4oc3=N)n2)C(C)(C)C1 | 14.7 µM (inactive) |

## Input State its GI50: Cc1nnc(Nc2ccc(Cl)cc2)o1
## Output > 10 µM (inactive)

## Input State its GI50: O=C(Cn1c(C(=O)/C=C/c2ccco2)nc2ccccc21)c1ccc(Cl)cc1
## Output 52.7 µM (inactive)

## Input State its GI50: C=C(C)[C@@]1(O)CCCC[C@@H]1CC(Sc1ccccc1)Sc1ccccc1
## Output 16.3 µM (inactive)

====

Observed GI50 values for HCT-15 are listed in what follows.
API: value field is a number in µM; no unit string.

| molecule | unit_descriptor | reported_result |
| --- | --- | --- |
| CCSC(=O)/C=C1\CN(C(=O)OC(C)(C)C)C1C(=O)OC(C)(C)C (stereo not drawn) | µM | 1.52 |

// moving on: another record for GI50
## Input State its GI50: O=CN1CCN(C(=O)c2ccc(Cl)cc2Cl)C1=S
## Output 78.7

====

# key: entry, value: GI50
tested on: OVCAR-5; experiment: NCI tumour cell line growth inhibition, 48 h
Activity calls are given as the source filed them. Cut-off read from the data, not from the text of the source: active = GI50 up to about 1.1 µM and inactive = higher.

In the examples that follow, each entry is paired with its recorded GI50.
| compound | GI50 |
| --- | --- |
| CC1CN=C(N(C(=O)Nc2ccccc2)c2ccccc2)S1 (centres undefined) | 90.4 µM (inactive) |
| O=C1C(CO)=C(CO)C(=O)c2c(O)ccc(O)c21 | 2.08 µM (inactive) |
| CNC(=O)OCc1nc(N=[N+]=[N-])n(C)c1COC(=O)NC | > 100 µM (inactive) |
| CCOC(=O)c1sc(N)nc1N1CCCC1 | > 100 µM (inactive) |
| C=C(C)[C@@]1(O)CCCC[C@@H]1CC(Sc1ccccc1)Sc1ccccc1 | 16.3 µM (inactive) |

// moving on: another record for GI50
## Input State its GI50: COc1cc(CCC(=O)NS(=O)(=O)c2ccccc2)cc(OC)c1OC
## Output > 100 µM (inactive)

====

tested on: UO-31; assay: NCI tumour cell line growth inhibition, 48 h
Calls of active or inactive are those of the source. Cut-off read from the data, not from the text of the source: active = GI50 up to about 1.1 µM and inactive = higher.
quantity: GI50

In the examples that follow, each entry is paired with its recorded GI50.
| molecule | GI50 |
| --- | --- |
| Cc1ccc(Cc2nn(C)c(=O)n2N)cc1 | > 100 µM (inactive) |
| CN1C(=O)CC(c2cccc(C3CC(=O)N(C)C3=O)n2)C1=O (stereo unspecified) | > 100 µM (inactive) |
| Nc1cc2c(nc3c4ccccc4c(N)cc3[n+]2-c2cccc3ccccc23)c2ccccc12.Nc1cc2c(nc3c4ccccc4ccc3[n+]2-c2cccc3ccccc23)c2ccccc12 | 2.59 µM (inactive) |
| O=c1c2nc3ccccc3c(=O)n2ncn1-c1ccccc1Cl | > 100 µM (inactive) |
| O=c1cc(-c2ccccc2)c2ccc(O)c(CN(CCCl)CCCl)c2o1 | 14.4 µM (inactive) |

// moving on: another record for GI50
## Input // fetch GI50 for COC(=O)c1cc(C)n(NC(=O)OC(C)(C)C)c1C ; system: UO-31
## Output > 100 µM (inactive)
